These measurements were taken from PubChem BioAssay AID1963966.

Tested on: 935938-334-R-J1-PDC spheroids with HUVEC/MSC, viability;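 also: compound exposure lasted seven days before viability was read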
Assay: Anticancer human tumor 935938-334-R-J1-PDC patient-derived small intestine adenocarcinoma cell line growth inhibition [PI3K]
Settings: curve of first compound; second compound 1 µM
Excerpt: Combinatorial screen of targeted agents with the PI3K inhibitors inavolisib, alpelisib, duvelisib, and copanlisib in multi-cell type tumor spheroids A high-throughput screen of multi-cell type tumor spheroids was designed to identify active combinations of targeted small molecules and PI3K pathway inhibitors. […] Compounds. […] If the clinical Cmax for an agent had not been determined, the highest concentration tested was 10 microM. […]
attribute.measured: IC50 (µM)
Supply the numeric figure in µM, leaving out any unit text.

# compound, IC50, µM
rows = [
    ("CC(C)n1nc(-c2ccc3oc(N)nc3c2)c2c(N)ncnc21 + Cc1nc(NC(=O)N2CCCC2C(N)=O)sc1-c1ccnc(C(C)(C)C(F)(F)F)c1", 0.00719),
]

Task: Tell me reported IC50 for C[C@@H](NC(=O)c1ncnc(N)c1Cl)c1ncc(C(=O)Nc2cc(C(F)(F)F)c(Cl)cn2)s1 + CC(Nc1ccc2c(c1)OCCn1cc(N3C(=O)OCC3C(F)F)nc1-2)C(N)=O , tested with 935938-334-R-J1-PDC spheroids with HUVEC/MSC, viability.
Result: 9.57
